Data provenance: patent EP1130016A1

- System: S.aureus Smith HPC023
- METHOD SUMMARY: Antibacterial activity (MIC), type strains
- Type: cell-based
- EXPERIMENTAL SETUP: Staphylococcus aureus; type strain S.aureus Smith HPC023; 10^6/ml of colony forming bacteria; read-out: MIC
MEASURED METRIC: MIC (µg/mL)

> print(dat)
                                   compound  value
1  COC(=S)NC[C@H]1CN(c2ccc(N3CCCC3)c(F)c2)C(=O)O1 [Example 4]   0.39
2  COC(=S)NC[C@H]1CN(c2ccc(N3CCS(=O)(=O)CC3)c(F)c2)C(=O)O1 [Example 3]   0.78
3  COC(=S)NC[C@H]1CN(c2ccc(N3CCSCC3)c(F)c2)C(=O)O1 [Example 1]   1.56
4  COC(=S)NC[C@H]1CN(c2ccc(N3CC[S+]([O-])CC3)c(F)c2)C(=O)O1 [Example 2]   0.78

* * *

Hi! I'm sharing some MIC results obtained with M.avium 20092.
MEASURED METRIC: MIC (µg/mL)

> print(dat)
                                   molecule  value
1  COC(=S)NC[C@H]1CN(c2ccc(N3CCSCC3)c(F)c2)C(=O)O1 [Example 1]   0.39
2  COC(=S)NC[C@H]1CN(c2ccc(N3CC[S+]([O-])CC3)c(F)c2)C(=O)O1 [Example 2]   3.13
3  COC(=S)NC[C@H]1CN(c2ccc(N3CCS(=O)(=O)CC3)c(F)c2)C(=O)O1 [Example 3]   3.13
4  CC(=O)NC[C@H]1CN(c2ccc(N3CCOCC3)c(F)c2)C(=O)O1 [Reference compound, Linezolid, reference compound]     25
5  COC(=S)NC[C@H]1CN(c2ccc(N3CCCC3)c(F)c2)C(=O)O1 [Example 4]   1.56

* * *

- Test system: MRSA HPC 432
- METHOD SUMMARY: Antibacterial activity (MIC), clinical isolates
- Format: cell-based, Methicillin-resistant Staphylococcus aureus
- EXPERIMENTAL SETUP: Staphylococcus aureus; clinical isolate MRSA HPC 432; 10^6/ml of colony forming bacteria; read-out: MIC
Attribute: MIC
MEASURED METRIC: MIC

> print(dat)
                                item.smiles  measured.metric       value
1  COC(=S)NC[C@H]1CN(c2ccc(N3CC[S+]([O-])CC3)c(F)c2)C(=O)O1              MIC  0.78 µg/mL
2  COC(=S)NC[C@H]1CN(c2ccc(N3CCCC3)c(F)c2)C(=O)O1              MIC  0.39 µg/mL
3  COC(=S)NC[C@H]1CN(c2ccc(N3CCS(=O)(=O)CC3)c(F)c2)C(=O)O1              MIC  0.78 µg/mL
4  COC(=S)NC[C@H]1CN(c2ccc(N3CCSCC3)c(F)c2)C(=O)O1              MIC  0.78 µg/mL

* * *

- Tested on: S.aureus MS353 HPC017
- METHOD SUMMARY: Antibacterial activity (MIC), type strains
- Type: cell-based
- EXPERIMENTAL SETUP: Staphylococcus aureus, MS353HPC017; type strain S.aureus MS353 HPC017; 10^6/ml of colony forming bacteria; read-out: MIC
- Protocol: Antibacterial activities (minimum inhibitory concentration: MIC) were determined according to the standard method of the Japan Society of Chemotherapy [Chemotherapy, Vol. 29, p.76 (1981)] by using type strains and strains isolated from patients with infectious disease (including clinical isolates and atypical acid-fast bacteria), and applying 10^6/ml of colony forming bacteria. […]
MEASURED METRIC: MIC (µg/mL)

> print(dat)
                                   molecule  value
1  COC(=S)NC[C@H]1CN(c2ccc(N3CCSCC3)c(F)c2)C(=O)O1 [Example 1]   0.78
2  COC(=S)NC[C@H]1CN(c2ccc(N3CC[S+]([O-])CC3)c(F)c2)C(=O)O1 [Example 2]   0.78
3  COC(=S)NC[C@H]1CN(c2ccc(N3CCS(=O)(=O)CC3)c(F)c2)C(=O)O1 [Example 3]   0.78
4  COC(=S)NC[C@H]1CN(c2ccc(N3CCCC3)c(F)c2)C(=O)O1 [Example 4]   0.39
